tested on: SK-MEL-2 melanoma; assay: NCI tumour cell line growth inhibition, 48 h
readout: TGI (µM)
Use µM as the unit, but write only the number.

compound | readout | experimental_result
C[C@]12Cc3conc3C(O)=C1CC[C@@H]1C2CC[C@@]2(C)C1CC[C@@H]2O (stereo not given in full) | TGI | 21.4

The record that follows has no TGI shown yet.
The compound listed as COc1ccc(C2(Cl)C(Cl)(C(F)(F)F)C2(Cl)C(F)(F)F)cc1 (stereo not given) has a reported TGI of 27.2

----------
tested on: SNB-19 CNS; test: NCI tumour cell line growth inhibition, 48 h
readout: TGI

These solved cases illustrate the format of a correct answer.
compound | TGI
CCn1nc(C2CCN(C(=O)CCO)CC2)nc1-c1cnc(N)c(-c2nnc(C(C)(C)C)o2)n1 | > 100 µM
Nc1nc(-c2cccnc2)cc(-c2cc(-c3cccnc3)nc(N)n2)n1 | > 100 µM
O=c1[nH]c(-c2ccc(Cl)c(Cl)c2)cn1-c1ccc(Cl)cc1 | 81.2 µM
CC(=O)C1C(=O)C(=O)N(c2ccc([N+](=O)[O-])cc2[N+](=O)[O-])C1=O (configuration not stated) | > 100 µM
CN1CCc2ccccc2C1Cc1ccccc1NC(=O)c1sc2ccccc2c1Cl (configuration not stated) | > 100 µM
C/C(=N\O)c1ccc(OCc2cc(C(F)(F)F)cc(C(F)(F)F)c2)cc1 | > 100 µM
CC(C)C1=Cc2ccc3c(c2C(=O)C1=O)CCCC3 | 37.5 µM
Oc1ccc(Br)cc1C=Nc1c(NC2CCCCC2)oc2ccc(Br)cc12 | > 100 µM

Short answer for O=S(O)O.O=S(O)O.[Co].[NH2-].[NH2-].[NH2-].[NH2-] : TGI was > 100 µM

Sample COc1ccc2cc3c4cc(OC)c(OC)cc4ccn3c2c1 ; TGI observed: > 100 µM
